system: MCF7 breast; assay: NCI-60 one-dose screen, 48 h (100 = growth as untreated, 0 = no growth, -100 = all killed); settings: 10 µM unless noted
About 83,000 compounds went through this panel and 20% of them were active in at least one assay; those are over-represented in the sample as a whole.
Rule: growth below 80% gives Satisfied. Equal to or above 80% gives Not satisfied.

Molecule	Label Value
CC(=O)OC1Oc2ccccc2-c2oc3nc(=N)n(C)c-3cc21 (stereo unspecified)	Not satisfied
O=C(CS)OCC(COC(=O)CS)(COC(=O)CS)COC(=O)CS	Satisfied
O=C(Cn1nncc1CN1C(=O)CSC1=O)Nc1ccc(F)cc1	Not satisfied
O=C1c2ccccc2C(=O)c2c1oc1ccc3ccccc3c21	Satisfied
CCOP(=O)(O)OP(=O)(O)OCC	Not satisfied
